Cited source for all entries: ChEMBL document CHEMBL3351341

- Test Name: Cmax in mouse at 10 mg/kg, po
- Assay type: ADME, organism-based
- Design: dose 10 mg/kg, route oral
- Settings: in vivo
Give Cmax for every item shown.

(Q) Give its Cmax value. Item: C=CC(=O)Nc1cc(Nc2nccc(-c3cn(C)c4ccccc34)n2)c(OC)cc1N(C)CCN(C)C
(A) 380 nM

(Q) Entry to check: C=CC(=O)Nc1cc(Nc2ncc(C#N)c(-c3cn(C)c4ccccc34)n2)c(OC)cc1N(C)CCN(C)C
(A) 110 nM

(Q) Entry to check: C=CC(=O)Nc1cc(Nc2ncc(Cl)c(-c3cn(C)c4ccccc34)n2)c(OC)cc1N(C)CCN(C)C
(A) 310 nM

----------
- System Name: Epidermal growth factor receptor (Homo sapiens)
- Test Name: Inhibition of wild type EGFR phosphorylation in human LoVo cells after 2 hrs by fluorescence assay
Quantity Measured: IC50 (nM)
Numbers only; they are read as nM.

(Q) Give its IC50 value. Item: C=CC(=O)Nc1cc(Nc2nccc(-c3c[nH]c4ccccc34)n2)c(OC)cc1N1CCN(C)CC1
(A) 1200

----------
Recorded IC50 values (Insulin-like growth factor 1 receptor (Homo sapiens, UniProt P08069)) are given below.
Numbers only; they are read as nM.

(Q) Give its IC50 value. Item: C=CC(=O)Nc1cc(Nc2ncc(Cl)c(-c3cnn4ccccc34)n2)c(OC)cc1N1CC(N(C)C)C1
(A) 26

(Q) Entry to check: C=CC(=O)Nc1cc(Nc2nccc(-c3cn(C)c4ccccc34)n2)c(OC)cc1N(C)CCNC
(A) 1600

(Q) Entry to check: C=CC(=O)Nc1cc(Nc2ncc(Cl)c(-c3cnn4ccccc34)n2)c(OC)cc1N1CC[C@@H](N(C)C)C1
(A) 7

(Q) Entry to check: C=CC(=O)Nc1cc(Nc2nccc(-c3cn(C)c4ccccc34)n2)c(OC)cc1N(C)CCN(C)C
(A) 2900

(Q) Entry to check: C=CC(=O)Nc1cc(Nc2ncc(C#N)c(-c3cn(C)c4ccccc34)n2)c(OC)cc1N(C)CCN(C)C
(A) 38

(Q) Entry to check: C=CC(=O)Nc1cc(Nc2ncc(Cl)c(-c3cn(C)c4ccccc34)n2)c(OC)cc1N(C)CCN(C)C
(A) 40

(Q) Entry to check: C=CC(=O)Nc1cc(Nc2ncc(Cl)c(-c3cnn4ccccc34)n2)c(OC)cc1N1CCN(C)CC1
(A) 2

----------
Give inhibition for every item shown.
- System Name: Insulin-like growth factor 1 receptor (Homo sapiens, UniProt P08069)
- Sequence (P08069 31-736 limits assumed): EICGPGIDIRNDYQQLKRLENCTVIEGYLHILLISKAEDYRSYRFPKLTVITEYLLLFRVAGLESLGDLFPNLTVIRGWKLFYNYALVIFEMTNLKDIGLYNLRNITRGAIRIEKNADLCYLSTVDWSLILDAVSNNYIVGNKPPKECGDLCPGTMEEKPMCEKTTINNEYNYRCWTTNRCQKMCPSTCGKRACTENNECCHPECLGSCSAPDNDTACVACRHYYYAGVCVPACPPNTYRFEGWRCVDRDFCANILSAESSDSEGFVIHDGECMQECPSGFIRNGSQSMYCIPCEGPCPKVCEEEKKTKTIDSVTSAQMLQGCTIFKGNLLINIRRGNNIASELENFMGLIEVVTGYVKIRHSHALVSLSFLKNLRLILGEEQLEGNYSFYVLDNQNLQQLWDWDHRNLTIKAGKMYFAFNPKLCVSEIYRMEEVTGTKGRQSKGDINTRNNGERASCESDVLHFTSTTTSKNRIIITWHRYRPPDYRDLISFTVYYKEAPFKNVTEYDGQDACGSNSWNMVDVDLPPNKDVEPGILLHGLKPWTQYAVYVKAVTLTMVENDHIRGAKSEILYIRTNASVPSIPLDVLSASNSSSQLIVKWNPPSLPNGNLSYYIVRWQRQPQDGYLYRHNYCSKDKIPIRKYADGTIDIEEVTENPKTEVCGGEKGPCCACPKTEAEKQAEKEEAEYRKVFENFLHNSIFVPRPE
- Sequence (P08069 741-1367 limits assumed): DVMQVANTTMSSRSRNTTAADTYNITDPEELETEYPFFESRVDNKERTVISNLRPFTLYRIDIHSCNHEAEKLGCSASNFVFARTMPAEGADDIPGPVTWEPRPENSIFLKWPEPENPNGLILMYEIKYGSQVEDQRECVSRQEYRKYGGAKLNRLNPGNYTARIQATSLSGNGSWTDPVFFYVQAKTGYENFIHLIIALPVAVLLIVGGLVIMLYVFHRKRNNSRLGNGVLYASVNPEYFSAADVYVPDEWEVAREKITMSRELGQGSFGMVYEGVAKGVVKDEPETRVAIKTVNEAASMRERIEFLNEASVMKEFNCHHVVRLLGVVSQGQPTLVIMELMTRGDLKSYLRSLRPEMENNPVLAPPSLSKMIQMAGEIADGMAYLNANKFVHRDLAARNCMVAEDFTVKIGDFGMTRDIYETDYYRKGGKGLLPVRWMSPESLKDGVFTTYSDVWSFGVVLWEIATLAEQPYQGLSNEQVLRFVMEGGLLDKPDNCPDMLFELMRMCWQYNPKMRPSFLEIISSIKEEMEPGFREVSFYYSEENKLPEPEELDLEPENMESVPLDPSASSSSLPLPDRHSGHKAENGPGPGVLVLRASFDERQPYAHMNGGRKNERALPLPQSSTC
- Test Name: Inhibition of IGF1R (unknown origin) at 1 uM relative to control
Numbers only; they are read as %.

(Q) Give its inhibition value. Item: C=CC(=O)Nc1cc(Nc2ncc(Cl)c(-c3cnn4ccccc34)n2)c(OC)cc1N1CC(N(C)C)C1
(A) 97

(Q) Entry to check: C=CC(=O)Nc1cc(Nc2ncc(Cl)c(-c3cnn4ccccc34)n2)c(OC)cc1N(C)CCN(C)C
(A) 97

(Q) Entry to check: C=CC(=O)Nc1cc(Nc2ncc(Cl)c(-c3cnn4ccccc34)n2)c(OC)cc1N1CCN(C)CC1
(A) 97

(Q) Entry to check: COc1ccc(NC(=O)/C=C/CN(C)C)cc1Nc1ncc(Cl)c(-c2cnn3ccccc23)n1
(A) 98

(Q) Entry to check: C=CC(=O)Nc1cc(Nc2ncc(Cl)c(-c3cnn4ccccc34)n2)c(OC)cc1N1CC[C@@H](N(C)C)C1
(A) 98

----------
- Test Name: Unbound fraction in nude mouse plasma
- Type: ADME, cell-free
Quantity Measured: fraction unbound
Would you mind answering with just the numeric figure?

(Q) Give its fraction unbound value. Item: C=CC(=O)Nc1cc(Nc2nccc(-c3cn(C)c4ccccc34)n2)c(OC)cc1N(C)CCN(C)C
(A) 0.034

(Q) Entry to check: C=CC(=O)Nc1cc(Nc2nccc(-c3c[nH]c4ccccc34)n2)c(OC)cc1N(C)CCN(C)C
(A) 0.134

(Q) Entry to check: C=CC(=O)Nc1cc(Nc2nccc(-c3cn(C)c4ccccc34)n2)c(OC)cc1N(C)CCNC
(A) 0.0105

----------
- Test Name: Intrinsic clearance in human hepatocytes measured per 10^6 cells
- Type: ADME, cell-based, Hepatocyte
- Settings: read-out: CLH
Quantity Measured: hepatocyte CLint (µL/min/1e6 cells)
Numbers only; they are read as µL/min/1e6 cells.

(Q) Give its hepatocyte CLint value. Item: C=CC(=O)Nc1cc(Nc2nccc(-c3cn(C)c4ccccc34)n2)c(OC)cc1N(C)CCN(C)C
(A) 3.4

(Q) Entry to check: C=CC(=O)Nc1cc(Nc2ncc(Cl)c(-c3cn(C)c4ccccc34)n2)c(OC)cc1N(C)CCN(C)C
(A) 10

(Q) Entry to check: C=CC(=O)Nc1cc(Nc2ncc(C#N)c(-c3cn(C)c4ccccc34)n2)c(OC)cc1N(C)CCN(C)C
(A) 10

----------
- Test Name: Unbound fraction in human plasma
- Assay type: ADME, cell-free
Quantity Measured: fraction unbound
Would you mind answering with just the numeric figure?

(Q) Give its fraction unbound value. Item: C=CC(=O)Nc1cc(Nc2nccc(-c3cn(C)c4ccccc34)n2)c(OC)cc1N(C)CCNC
(A) 0.039

(Q) Entry to check: C=CC(=O)Nc1cc(Nc2ncc(Cl)c(-c3cn(C)c4ccccc34)n2)c(OC)cc1N(C)CCN(C)C
(A) 0.023

(Q) Entry to check: C=CC(=O)Nc1cc(Nc2ncc(C#N)c(-c3cn(C)c4ccccc34)n2)c(OC)cc1N(C)CCN(C)C
(A) 0.089

(Q) Entry to check: C=CC(=O)Nc1cc(Nc2nccc(-c3c[nH]c4ccccc34)n2)c(OC)cc1N(C)CCN(C)C
(A) 0.075

(Q) Entry to check: C=CC(=O)Nc1cc(Nc2ncc(Cl)c(-c3c[nH]c4ccccc34)n2)c(OC)cc1N(C)CCN(C)C
(A) 0.036

----------
Give logD for every item shown.
- Test Name: Lipophilicity, log D of the compound at pH 7.4
- Assay type: physicochemical
- Settings: buffer
Would you mind answering with just the numeric figure?

(Q) Give its logD value. Item: C=CC(=O)Nc1cc(Nc2ncc(C#N)c(-c3cn(C)c4ccccc34)n2)c(OC)cc1N(C)CCN(C)C
(A) 2.7

(Q) Entry to check: C=CC(=O)Nc1cc(Nc2nccc(-c3cn(C)c4ccccc34)n2)c(OC)cc1N(C)CCNC
(A) 2.3

(Q) Entry to check: C=CC(=O)Nc1cc(Nc2ncc(Cl)c(-c3c[nH]c4ccccc34)n2)c(OC)cc1N(C)CCN(C)C
(A) 3.3

(Q) Entry to check: C=CC(=O)Nc1cc(Nc2nccc(-c3c[nH]c4ccccc34)n2)c(OC)cc1N(C)CCN(C)C
(A) 2.9

(Q) Entry to check: C=CC(=O)Nc1cc(Nc2nccc(-c3cn(C)c4ccccc34)n2)c(OC)cc1N(C)CCN(C)C
(A) 3.4

(Q) Entry to check: C=CC(=O)Nc1cc(Nc2ncc(Cl)c(-c3cnn4ccccc34)n2)c(OC)cc1N1CCN(C(=O)[C@@H](C)N)CC1
(A) 2.1

(Q) Entry to check: C=CC(=O)Nc1cc(Nc2ncc(Cl)c(-c3cnn4ccccc34)n2)c(OC)cc1N1CCN(C(=O)[C@H]2CCCCN2)CC1
(A) 2.2

(Q) Entry to check: C=CC(=O)Nc1cc(Nc2ncc(Cl)c(-c3cnn4ccccc34)n2)c(OC)cc1N1CCN(C(=O)CNC)CC1
(A) 1.8

(Q) Entry to check: C=CC(=O)Nc1cc(Nc2ncc(Cl)c(-c3cnn4ccccc34)n2)c(OC)cc1N1CCN(C(=O)CN(C)C)CC1
(A) 2.6

(Q) Entry to check: C=CC(=O)Nc1cc(Nc2ncc(Cl)c(-c3cn(C)c4ccccc34)n2)c(OC)cc1N(C)CCN(C)C
(A) 3.3

(Q) Entry to check: C=CC(=O)Nc1cc(Nc2ncc(Cl)c(-c3cnn4ccccc34)n2)c(OC)cc1N1CCN(C(=O)[C@@H]2CCCCN2)CC1
(A) 2.2

(Q) Entry to check: C=CC(=O)Nc1cc(Nc2ncc(Cl)c(-c3cnn4ccccc34)n2)c(OC)cc1N1CCN(C(=O)N2CCNCC2)CC1
(A) 2

----------
- System Name: Epidermal growth factor receptor (Homo sapiens, UniProt P00533, EX19DEL)
- Sequence (P00533 whole entry, looked up, stated change not applied): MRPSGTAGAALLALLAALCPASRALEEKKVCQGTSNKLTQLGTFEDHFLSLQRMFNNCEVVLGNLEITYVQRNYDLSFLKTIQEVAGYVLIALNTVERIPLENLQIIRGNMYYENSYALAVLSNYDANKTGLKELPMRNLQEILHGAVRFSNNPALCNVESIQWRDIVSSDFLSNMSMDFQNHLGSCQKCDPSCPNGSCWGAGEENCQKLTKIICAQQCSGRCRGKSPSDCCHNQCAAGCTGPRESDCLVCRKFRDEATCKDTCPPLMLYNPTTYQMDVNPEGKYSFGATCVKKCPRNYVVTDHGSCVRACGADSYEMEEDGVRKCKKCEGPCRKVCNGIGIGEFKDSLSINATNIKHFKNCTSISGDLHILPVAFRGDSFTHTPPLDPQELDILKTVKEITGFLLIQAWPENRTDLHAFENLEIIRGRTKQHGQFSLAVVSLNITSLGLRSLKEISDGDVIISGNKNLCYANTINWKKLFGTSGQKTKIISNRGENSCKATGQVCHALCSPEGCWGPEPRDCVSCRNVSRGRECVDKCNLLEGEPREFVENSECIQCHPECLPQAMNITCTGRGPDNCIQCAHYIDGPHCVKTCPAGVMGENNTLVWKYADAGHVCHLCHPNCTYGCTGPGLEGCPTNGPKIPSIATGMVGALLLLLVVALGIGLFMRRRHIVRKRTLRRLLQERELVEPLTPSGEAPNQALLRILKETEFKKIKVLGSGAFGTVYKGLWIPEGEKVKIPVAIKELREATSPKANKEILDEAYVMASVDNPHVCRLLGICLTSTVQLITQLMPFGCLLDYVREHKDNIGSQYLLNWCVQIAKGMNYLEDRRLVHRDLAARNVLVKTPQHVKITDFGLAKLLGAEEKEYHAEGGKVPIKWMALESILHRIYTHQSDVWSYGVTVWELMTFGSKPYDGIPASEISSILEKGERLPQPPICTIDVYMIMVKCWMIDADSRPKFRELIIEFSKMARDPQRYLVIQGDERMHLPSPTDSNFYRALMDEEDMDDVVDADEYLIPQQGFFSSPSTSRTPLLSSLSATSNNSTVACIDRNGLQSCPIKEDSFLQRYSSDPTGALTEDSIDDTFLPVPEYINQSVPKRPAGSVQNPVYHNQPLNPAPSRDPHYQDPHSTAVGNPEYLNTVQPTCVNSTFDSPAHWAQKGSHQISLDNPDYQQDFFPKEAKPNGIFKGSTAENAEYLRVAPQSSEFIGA
- Test Name: Inhibition of EGFR exon 19 deletion activating mutant phosphorylation in human PC9 cells after 2 hrs by fluorescence assay
Quantity Measured: pIC50
In textbook form, pIC50 equals minus log to base ten of the concentration in mol/L.

(Q) Could you share what pIC50 was measured for C=CC(=O)Nc1cc(Nc2nccc(-c3c[nH]c4ccccc34)n2)c(OC)cc1N1CCN(C)CC1 , tested on Epidermal growth factor receptor (Homo sapiens, UniProt P00533, EX19DEL)?
(A) 7.82

----------
- Tested on: Rattus norvegicus
- Test Name: Clearance in iv dosed Han Wistar rat
- Assay type: ADME, organism-based
- Settings: in vivo
Give clearance for every item shown.
Numbers only; they are read as mL/min/kg.

(Q) Give its clearance value. Item: C=CC(=O)Nc1cc(Nc2ncc(C#N)c(-c3cn(C)c4ccccc34)n2)c(OC)cc1N(C)CCN(C)C
(A) 62

(Q) Entry to check: C=CC(=O)Nc1cc(Nc2nccc(-c3cn(C)c4ccccc34)n2)c(OC)cc1N(C)CCN(C)C [OSIMERTINIB]
(A) 45

(Q) Entry to check: C=CC(=O)Nc1cc(Nc2ncc(Cl)c(-c3cn(C)c4ccccc34)n2)c(OC)cc1N(C)CCN(C)C
(A) 27
